Measurement notes: inhibitors of VEEV TC-83 cytopathic effect, confirmation, Vero cells (AID 588727)
Condition set: VEEV TC-83 cytopathic effect inhibition, at 20 µM; hits give high values unless noted
The whole screen tested about 350,000 compounds, of which about 450 (0.13%) were called active. A selection follows. Measured potencies and affinities stand elsewhere.
Assay readout: inhibition (%)
Write down the numeric answer in % and omit the unit.

In: I am curious: what inhibition value has been reported for CCCc1c(NC(=O)Nc2ccc(F)cc2)cnn1-c1ccc(Cl)cc1 ?
Out: 3.23

In: Report inhibition for CC(C)(C)OC(=O)[C@H](Cc1ccccc1)NC(=O)c1nc[nH]c1C(=O)N1CCN(c2ccccc2)CC1 please.
Out: 5.56

In: Looking for the measured inhibition of COc1cc(/C=C/C(=O)c2ccc(NS(=O)(=O)c3ccc(C)cc3)cc2)ccc1OC(F)F , can you help?
Out: 42.9

In: Value lookup for inhibition; key = Cc1nc(-c2ccc(Cl)cc2)sc1C1(C)CC(c2cccc(F)c2)=NO1 (stereo not drawn)
Out: 2.59

In: State the recorded inhibition for this entry: CCCCN1C(Nc2ccccc2)=NC[C@@H]1C
Out: 0.29

In: # lookup: inhibition of CCC1CSC(Nc2ccc(C(=O)/C=C/c3ccc(Br)cc3)cc2)=N1 (stereo not drawn)
Out: 0.39

In: What value of inhibition has been reported for the following molecule? CCOC(=O)Cn1c(S(=O)(=O)Cc2cccc(F)c2)nc(-c2ccccc2)c1-c1ccccc1
Out: 3.2

In: State the recorded inhibition for this entry: COC(C[C@H](O)C[C@H](O)[C@@H](C)OCc1ccccc1)OC
Out: 0.19

In: inhibition for Cc1ccc(S(=O)(=O)Oc2ccc(N3C(=O)C4C5CCC(C5)C4C3=O)cc2)cc1 (stereo not drawn) ?
Out: 2.05

---

Measurement notes: inhibitors of VEEV TC-83 cytopathic effect, confirmation, Vero cells (AID 588727)
Condition set: VEEV TC-83 cytopathic effect inhibition, at 20 µM; hits give high values unless noted
Hit rate of the full screen: of about 350,000 compounds, about 450 (0.13%) were called active. A selection follows. Entries with a potency or affinity are not part of this list.
Assay readout: inhibition (%)
Numbers only here, please. The scale is %.

Completed entries (count: 3):
[[record]]
compound = "CCOC(=O)c1c(C)oc(NC(=O)CCl)c1C(=O)OCC"
u = "%"
meas_value = 1.19

[[record]]
compound = "Cc1cccn2cc(-c3ccccc3)nc12"
u = "%"
meas_value = 5.4

[[record]]
compound = "COc1ccccc1C(=O)N(Cc1ccco1)C1CCS(=O)(=O)C1 (stereo not given)"
u = "%"
meas_value = 0.87


In: inhibition for COc1cccc(-n2c(CN3CCOCC3)nc3ccc([N+](=O)[O-])cc3c2=O)c1 ?
Out: 7.79

In: Please give the measured inhibition for this compound: CCC(CC)N1CCN(Cc2nc3ccc([N+](=O)[O-])cc3c(=O)n2-c2ccccc2F)CC1
Out: 22.2

In: State the recorded inhibition for this entry: Cc1c(NC(=O)COC(=O)c2cc(-c3cccc4ccccc34)nc3ccccc23)c(=O)n(-c2ccccc2)n1C
Out: 2.81

In: Recorded inhibition of CCN(CC)S(=O)(=O)c1ccc(NN=c2c(=O)c3ccccc3c2=O)cc1 , please.
Out: 0.93

In: Which inhibition is listed for Cc1cc(-c2nnc(SCCC(=O)Nc3ccccc3)o2)no1 ?
Out: 0.79

In: Dear colleague, I am looking for the recorded inhibition of the following compound: Cc1ccnc(NC(=O)CCC(=O)N(CC(=O)NCc2ccc(F)cc2)CC2CCCO2)c1 (stereo not given)
Out: 0.42

In: Any idea what its inhibition is? The compound is Cc1cccn2cc(COc3cccc([N+](=O)[O-])c3)nc12
Out: 2.58

---

Measurement notes: inhibitors of VEEV TC-83 cytopathic effect, confirmation, Vero cells (AID 588727)
Condition set: VEEV TC-83 cytopathic effect inhibition, at 20 µM; hits give high values unless noted
In all, about 350,000 compounds went through this assay and about 450 (0.13%) were called active. Only a sample is shown. Measured potencies and affinities stand elsewhere.
Assay readout: inhibition (%)
Note: unit % is implicit; provide only the numeric part.

[[record]]
molecule = "Cc1cc(N2CCN(Cc3nc(-c4ccc(F)cc4)oc3C)CC2)cc(C)n1"
meas_value = 0.13

[[record]]
molecule = "COc1ccc(/C=N/Nc2nonc2N)cc1"
meas_value = 0.29

[[record]]
molecule = "Nc1nc(N)nc(-c2cccc(Cl)c2)n1"
meas_value = 1.28

[[record]]
molecule = "COc1ccc(/C=N/NC(=O)c2c(-c3ccccc3)noc2C)cc1"
meas_value = 1.23

[[record]]
molecule = "Cc1oc(-c2ccc(Cl)cc2)nc1CN1CCC(C(=O)NCCCN2CCOCC2)CC1"
meas_value = 2.07

[[record]]
molecule = "Cc1cc(C)cc(NC(=O)[C@H](Cc2c[nH]c3ccccc23)NC(=O)[C@@H]2Cc3ccccc3CN2)c1"
meas_value = 0.29

[[record]]
molecule = "Cc1ccccc1-c1nc(CN2CCC(C(=O)NCCCN3CCCC(C)C3)CC2)c(C)o1 (stereo not given)"
meas_value = 9.38

[[record]]
molecule = "Cc1cccc(-n2ncc3c(N4CC(C)CC(C)C4)ncnc32)c1 (stereo not given)"
meas_value = 1.8

[[record]]
molecule = "O=S(=O)(c1ccc(F)cc1)N1CCC2(CC1)OCCO2"
meas_value = 0.49


Now for another entry.
In: What does the data say about its inhibition? Entry: COc1ccccc1CNC(=O)[C@H](Cc1c[nH]c2ccccc12)NC(=O)[C@@H]1Cc2ccccc2CN1
Out: 0.04

---

Measurement notes: inhibitors of VEEV TC-83 cytopathic effect, confirmation, Vero cells (AID 588727)
Condition set: VEEV TC-83 cytopathic effect inhibition, at 20 µM; hits give high values unless noted
In all, about 350,000 compounds went through this assay and about 450 (0.13%) were called active. Not all results are given here. Entries with a potency or affinity are not part of this list. Where a SMILES comes first, the peptide text is derived from it. The star is where a group is joined. CH2Cl = ClC*
Assay readout: inhibition (%)
Respond with the bare value in %.

Some compounds with recorded inhibition:
[[record]]
compound = "CCCCn1c(N)c(N(CCC(C)C)C(=O)CSc2nnc3ccccn23)c(=O)[nH]c1=O"
meas_value = 0.96

[[record]]
compound = "COc1ccc(OCC(=O)Nc2nc3c(s2)CCCC3)cc1"
meas_value = 5.92

[[record]]
compound = "CC(=O)NC(CC(C)C)C(=O)NC(Cc1ccccc1)C(=O)CCl (stereo not drawn) (Ac-Leu-Phe-CH2Cl; configuration not given here)"
meas_value = 6.56

[[record]]
compound = "Cc1ccc2nc(NC(=O)Cn3nc(C)c([N+](=O)[O-])c3C)sc2c1"
meas_value = 5.1

[[record]]
compound = "O=C(N[C@@H](Cc1ccccc1)C(=O)CCl)OCc1ccccc1"
meas_value = 8.46


In: Request the reported inhibition associated with CCOC(=O)c1c(SC)n(-c2ccccc2)c(=S)n(-c2ccccc2)c1=O
Out: 0.87

In: Entry O=c1c2ccccc2nc2n1C(CSc1ccccc1)CS2 (centres undefined) has what inhibition?
Out: 1

In: Any idea what inhibition was measured for CC(=O)OC1CCC2(C)C3CCC4(C)C(C(C)=O)CCC4C3CC3OC32C1 (centres undefined) ?
Out: 4.89

In: Give the measured inhibition of Cc1c(N(C)S(=O)(=O)c2cccc(C(=O)NCC3CCCO3)c2)c(=O)n(-c2ccccc2)n1C (centres undefined) .
Out: 1.98

In: // returns reported inhibition for input Cc1ccc(NC(=O)Nc2nnc(-c3ccccc3F)s2)cc1
Out: 0.72

---

Measurement notes: inhibitors of VEEV TC-83 cytopathic effect, confirmation, Vero cells (AID 588727)
Condition set: VEEV TC-83 cytopathic effect inhibition, at 20 µM; hits give high values unless noted
Among all 350,000 compounds or so, about 450 (0.13%) were called active. Not all results are given here. Entries with a potency or affinity are not part of this list.
Assign class by inhibition: not lower than 8% means MET; lower than 8% means NOT MET.

Example results:
[[record]]
compound = "COc1ccc(COC(=O)c2cccc(S(=O)(=O)N3CCN(C(C)=O)CC3)c2)cc1F"
classification = "NOT MET"

[[record]]
compound = "CC(C)c1ccc(Nc2ncccc2C(=O)O)cc1"
classification = "NOT MET"

[[record]]
compound = "O=C(N/N=C/c1ccc(F)cc1)c1cc(-c2ccc3c(c2)OCO3)n[nH]1"
classification = "NOT MET"

[[record]]
compound = "CCOC(=O)C(CC)n1cnc2sc3c(c2c1=O)CCC3 (stereo unspecified)"
classification = "NOT MET"


Switching to the query record.
In: Does the reported inhibition for c1ccc(-c2cn(-c3ccccc3)c3ncnc(NCCCN4CCOCC4)c23)cc1 fall at or above the 8% mark?
Out: MET
